- Test system: Escherichia coli TOP10
- Assay details: shrunken log2 fold change of peptide-encoding DNA abundance (4.5 h post-induction vs induction); higher = less antimicrobial activity (less host growth inhibition)
- Experimental conditions: time post-induction: 4.5 h; library: site-saturation at positions 5, 18, 19, 20
Give measured shrunken log2 fold change for each item. Keep answers brief.
Answers are plain numbers.

// below: answered sequences
Query: Please provide the recorded shrunken log2 fold change for `RRIRYRPPRLPRPRPRPILDPRP` , tested on Escherichia coli TOP10.
Response: -0.253

Query: Notebook: pull reported shrunken log2 fold change for Escherichia coli TOP10, entry `RRIRARPPRLPRPRPRPSYKPRP`
Response: -0.305

Query: # value lookup — system Escherichia coli TOP10, readout shrunken log2 fold change, item `RRIRFRPPRLPRPRPRPEQKPRP`
Response: 0.341

Query: Item: `RRIRTRPPRLPRPRPRPEPFPRP` Test system: Escherichia coli TOP10 Read-out: shrunken log2 fold change Value: ?
Response: 0.0259

Query: Recorded shrunken log2 fold change for `RRIRVRPPRLPRPRPRPLSLPRP` with Escherichia coli TOP10, please?
Response: -0.0403

For each of the sequences below, state shrunken log2 fold change.
1. RRIRQRPPRLPRPRPRPECHPRP
2. RRIRERPPRLPRPRPRPSYGPRP
3. RRIRSRPPRLPRPRPRPWACPRP

Response:
1: 0.268; 2: -0.708; 3: 0.0189

List the reported shrunken log2 fold change of each sequence below.
1. RRIRRRPPRLPRPRPRPTYHPRP
2. RRIRIRPPRLPRPRPRPPMNPRP
3. RRIRKRPPRLPRPRPRPVTTPRP

Response:
1. 0.648
2. -0.368
3. 0.0429

###

- System: Escherichia coli TOP10
- Assay details: shrunken log2 fold change of peptide-encoding DNA abundance (4.5 h post-induction vs induction); higher = less antimicrobial activity (less host growth inhibition)
- Experimental conditions: time post-induction: 4.5 h; library: site-saturation at positions 5, 18, 19, 20
Quantity name: shrunken log2 fold change
Answers are plain numbers.

# example entries with known answers
Query: Name the recorded shrunken log2 fold change for `RRIRDRPPRLPRPRPRPTGHPRP` .
Response: 0.502

Query: Fill blank: measured shrunken log2 fold change of the sequence `RRIRTRPPRLPRPRPRPDNRPRP` is ____.
Response: -0.0132

Query: Which shrunken log2 fold change is reported for this sequence? `RRIRFRPPRLPRPRPRPKCMPRP`
Response: -0.967

Query: So what does the record say about shrunken log2 fold change for `RRIRHRPPRLPRPRPRPRLRPRP` ?
Response: 0.207

Query: Looking for the measured shrunken log2 fold change of `RRIRRRPPRLPRPRPRPSFVPRP` , can you help?
Response: -0.0435

Required: shrunken log2 fold change, one value per sequence below.
1. RRIRERPPRLPRPRPRPGDEPRP
2. RRIRARPPRLPRPRPRPPVNPRP
3. RRIRVRPPRLPRPRPRPQYPPRP

Response:
1: 0.115; 2: 0.36; 3: -0.101

###

I'd be grateful if you could share measured shrunken log2 fold change for these entries.
- Test system: Escherichia coli TOP10;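 note: peptides expressed intracellularly from a pBAD plasmid library in pooled LB shake-flask culture, induced with 0.3% L-arabinose, DNA abundance read by NGS, three biological replicates, DESeq2 with apeglm shrinkage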
- Assay details: shrunken log2 fold change of peptide-encoding DNA abundance (4.5 h post-induction vs induction); higher = less antimicrobial activity (less host growth inhibition)
- Experimental conditions: time post-induction: 4.5 h; library: site-saturation at positions 5, 18, 19, 20
Numbers only.

Please review the entries below; each comes with its answer.
Query: shrunken log2 fold change lookup needed for `RRIRARPPRLPRPRPRPDSKPRP` , thanks.
Response: 0.149

Query: Look up shrunken log2 fold change for this sequence: `RRIRERPPRLPRPRPRPKNQPRP`
Response: -0.281

Query: What measured shrunken log2 fold change goes with `RRIRCRPPRLPRPRPRPTKGPRP` ?
Response: -0.0938

Query: shrunken log2 fold change for `RRIRTRPPRLPRPRPRPYVRPRP` ?
Response: 0.0143

Query: For the sequence `RRIRPRPPRLPRPRPRPNQCPRP` , what shrunken log2 fold change is on record?
Response: -0.0767

Query: Using the record for `RRIRNRPPRLPRPRPRPWRMPRP` , report its shrunken log2 fold change.
Response: 0.0039

Query: Please report the recorded shrunken log2 fold change for `RRIRRRPPRLPRPRPRPSFSPRP` .
Response: -0.411

Query: Consider the sequence shown here: `RRIRMRPPRLPRPRPRPVHKPRP` What is its recorded shrunken log2 fold change?
Response: -0.0081

Query: Would you mind telling me what shrunken log2 fold change value was observed for `RRIRHRPPRLPRPRPRPAIPPRP` ?
Response: -0.112

Query: Quick check: shrunken log2 fold change of `RRIRDRPPRLPRPRPRPSVMPRP` ?
Response: 0.198

Parameters: items (list). Returns: shrunken log2 fold change for each item.
1. RRIRARPPRLPRPRPRPRCFPRP
2. RRIRRRPPRLPRPRPRPFSAPRP

Response:
[0.222, -0.274]
